Please provide measured log10(IC50) for the entries that follow.
Target: human CB2 receptor (Homo sapiens, UniProt P34972)
Sequence (P34972 whole entry): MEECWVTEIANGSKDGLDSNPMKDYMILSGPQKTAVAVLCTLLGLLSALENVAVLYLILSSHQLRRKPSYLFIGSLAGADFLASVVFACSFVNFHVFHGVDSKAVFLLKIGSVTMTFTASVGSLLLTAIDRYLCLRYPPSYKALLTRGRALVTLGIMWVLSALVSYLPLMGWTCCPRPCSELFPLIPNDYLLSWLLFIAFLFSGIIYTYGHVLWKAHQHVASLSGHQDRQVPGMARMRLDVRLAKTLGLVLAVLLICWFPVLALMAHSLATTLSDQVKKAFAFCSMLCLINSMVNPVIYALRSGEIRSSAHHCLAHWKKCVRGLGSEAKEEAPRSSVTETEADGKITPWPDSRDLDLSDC
Assay: Binding assay, cannabinoid CB2 receptor ([3H]-CP-55,940 displacement)
Conditions: Cannabinoid CB2 Receptor Binding IC50, human CB2 receptor, SK-N-MC cell membranes, radioligand CP-55,940 0.2 nM
All values: log10 IC50 [nM].

Recorded results for 3 molecules are shown here.
molecule: C[C@H](NC(=O)c1nn(C2CCCCC2)c2c1CCCC2)c1ccccc1
endpointName: log10(IC50)
dataValue: 2.08

molecule: O=C(NC1C2CC3CC(C2)CC1C3)c1nn(-c2ccc(Cl)cc2Cl)c2c1CCCC2 (centres unmarked)
endpointName: log10(IC50)
dataValue: 1.00

molecule: O=C(NC1C2CC3CC(C2)CC1C3)c1nn(C2CCCCC2)c2c1CCCC2 (centres unmarked)
endpointName: log10(IC50)
dataValue: 0.75

Batch of 7 molecules: report log10(IC50) for each.
1. O=C(NC1C2CC3CC(C2)CC1C3)c1nn(C2CCCCC2)c2c1CCCC2Cl (centres unmarked)
2. CCOC(=O)[C@@H]1C2C=CC(C2)[C@@H]1NC(=O)c1nn(C2CCCCC2)c2c1CCCC2 (some centres unmarked)
3. O=C(NNC1CCCCC1)c1nn(C2CCCCC2)c2c1CCCC2
4. O=C(NC(Cc1ccc(OCc2ccccc2)cc1)C(=O)O)c1nn(C2CCCCC2)c2c1CCCC2 (centres unmarked)
5. CN1C2CCC1CC(NC(=O)c1nn(C3CCCCC3)c3c1CCCC3)C2 (centres unmarked)
6. C[C@@H](NC(=O)c1nn(Cc2ccccc2)c2c1CCCC2)C1CCCCC1
7. C[C@@H](NC(=O)c1nn(C2CCCCC2)c2c1CC(NC(=O)OC(C)(C)C)CC2)C1CCCCC1 (some centres unmarked)

Result string:
[0.70, 2.83, 2.29, 3.08, 3.96, 0.76, 3.43]

Provide the reported log10(IC50) of each entry below, same order.
1. CC12CCC(C1)C(C)(C)C2NC(=O)c1nn(-c2ccc(F)cc2)c2c1CCCC2C1CCCCC1 (centres unmarked)
2. O=C(NC12CC3CC(CC(C3)C1)C2)c1c2c(nn1-c1ccc(Cl)cc1Cl)CCCC2
3. CC(NC(=O)c1nn(C2CCCCC2)c2c1CC(=O)CC2)C12CC3CC(CC(C3)C1)C2 (centres unmarked)
4. CCOC(=O)[C@H]1C2CCC(C2)[C@H]1NC(=O)c1nn(C2CCCCC2)c2c1CCCC2O (some centres unmarked)
5. CCOC(=O)C1CCc2nn(Cc3ccccc3)c(C(=O)NC34CC5CC(CC3C5)C4)c2C1 (centres unmarked)
6. CCOC(=O)C1CCc2nn(C3CCCCC3)c(C(=O)NC(C)C34CC5CC(CC(C5)C3)C4)c2C1 (centres unmarked)

Result string:
1: 3.83; 2: 3.53; 3: 1.48; 4: 2.69; 5: 3.06; 6: 3.65

Query string: Give the measured log10(IC50) for CCNC(=O)[C@@H]1C2CCC(C2)[C@@H]1NC(=O)c1nn(Cc2ccccc2)c2c1CCCC2 (some centres unmarked)
Result string: 1.45

----------
Biological target: human CB2 receptor (Homo sapiens, UniProt P34972)
Assay: Binding assay, cannabinoid CB2 receptor ([3H]-CP-55,940 displacement)
Settings: Cannabinoid CB2 Receptor Binding IC50, human CB2 receptor, SK-N-MC cell membranes, radioligand CP-55,940 0.2 nM
Record form. Attribute: log10 of IC50. Fill in for each entry.
Form field - Quantity: IC50; Unit: nM; Scale: log10

Provide reported log10 of IC50 for each item, in the same order as listed.
1. CCOC(=O)[C@@H]1CCc2c(c(C(=O)NC3C4CC5CC(C4)CC3C5)nn2Cc2ccccc2)C1 (stereo partly shown)
2. CC(NC(=O)c1nn(C2CCCCC2)c2c1CCCC2)C12CC3CC(CC(C3)C1)C2 (stereo not shown)
3. CC(C)(C)OC(=O)NC1CCc2c(c(C(=O)NC3C4CC5CC(C4)CC3C5)nn2C2CCCCC2)C1 (stereo not shown)
4. CCOC(=O)C1CCc2c(C(=O)NCC34CC5CC(CC(C5)C3)C4)nn(Cc3ccccc3)c2C1 (stereo not shown)
5. CC(NC(=O)c1nn(Cc2ccccc2)c2c1CC(C(=O)O)CC2)C12CC3CC(CC(C3)C1)C2 (stereo not shown)
6. CC12CCC(C1)C(C)(C)C2NC(=O)Nc1nn(Cc2ccccc2)c2c1CCCC2 (stereo not shown)

Result string:
[-0.15, 1.18, 1.91, 0.30, 3.23, 1.43]

Provide log10 of IC50 for all items below, preserving their order.
1. O=C(NC12CC3CC(CC(C3)C1)C2)c1nn(-c2ccc(F)cc2)c2c1CCCC2c1ccccc1 (stereo not shown)
2. CCOC(=O)C(Cc1nn(C2CCCCC2)c2c1CCCC2)c1ccccc1OC (stereo not shown)

Result string:
2.90
3.28

// for each compound in input: emit log10 of IC50
1. CC(NC(=O)c1nn(C2CCCCC2)c2c1CCCC2)C1CCC1 (stereo not shown)
2. CC(NC(=O)CCc1nn(C2CCCCC2)c2c1CCCC2)C12CC3CC(CC(C3)C1)C2 (stereo not shown)

Result string:
1. 1.67
2. 2.36
